- TEST_SUMMARY: NCI Yeast Anticancer Drug Screen. Data for the mec2-1 strain (AID 157)
- CONDITION_SET: S. cerevisiae mec2-1 strain, at 50.0 µM (retest, dose inferred, filed as 5.0), hits give high values
Compounds without any hit were thinned out: in the full panel of roughly 79,000, 15% have a hit.
For each entry below, report its growth inhibition value.
Give just the numeric value; % need not be written.

Q. Consider the compound shown here: NC(N)=N/N=C1\C(=O)N(c2ccc(Cl)cc2)C(=O)C1C(=O)Nc1ccc(Cl)cc1 (stereo not given) What is its recorded growth inhibition?
A. 17

Q. Consider the compound shown here: c1ccc(CCNCc2ccccc2)cc1 What is its recorded growth inhibition?
A. 2

Q. Consider the compound shown here: CCC(C)(c1ccc(O)cc1)c1ccc(O)cc1 What is its recorded growth inhibition?
A. 99

Q. Consider the compound shown here: C[C@@H]1CC[C@@]2(NC1)O[C@H]1C[C@H]3[C@@H]4CC[C@H]5C[C@@H](O)CC[C@]5(C)[C@H]4CC[C@]3(C)[C@H]1[C@@H]2C What is its recorded growth inhibition?
A. 98

Q. Consider the compound shown here: O=C(c1ccccc1)c1c(CC(O)c2ccccn2)n(C(=O)c2ccccc2)c2ccccc12 (stereo not given) What is its recorded growth inhibition?
A. 75

Q. Consider the compound shown here: Cc1ccc(NP(=O)(Oc2ccccc2)N(CCCl)CCCl)cc1 (stereo not given) What is its recorded growth inhibition?
A. 10

Q. Consider the compound shown here: C[n+]1c(/C=C/c2ccc(O)c3ncccc23)[se]c2ccccc21 What is its recorded growth inhibition?
A. 90

Q. Consider the compound shown here: CN1c2cccc[c]2[Sn]([CH3])([CH3])[c]2ccccc21 What is its recorded growth inhibition?
A. 99

Q. Consider the compound shown here: Oc1ccc2ccccc2c1O What is its recorded growth inhibition?
A. 59

Q. Consider the compound shown here: Nc1nc(N)c(-c2ccc(Cl)c(Cl)c2)c(CCc2ccc(CNC(=O)Nc3ccc(S(=O)(=O)F)cc3)cc2)n1 What is its recorded growth inhibition?
A. 19

Cited source: PubChem BioAssay (NCI)
